# assay-protocol: Pharmacokinetics after oral gavage in rats (plasma, HPLC)
# Type: in vivo, Sprague Dawley rats
# measurement-parameters: male, Sprague Dawley, rat, po, 20 mg/kg, n = 3, read-out: AUC0-t
Listing of entries alongside the reported AUC(0-t).
Enter your answer as a number in µg·h/mL; do not include the unit.

Would you mind telling me what AUC(0-t) value was observed for CC1(C)[C@@H](O[C@H]2O[C@H](C(=O)O)[C@@H](O)[C@H](O)[C@H]2O[C@@H]2O[C@H](C(=O)O)[C@@H](O)[C@H](O)[C@H]2O)CC[C@]2(C)[C@H]3C(=O)C=C4[C@H]5C[C@@](C)(C(=O)O)CC[C@]5(C)CC[C@@]4(C)[C@]3(C)CC[C@@H]12 [MAGN, magnesium isoglycyrrhizinate] ? 552

What about this compound? CC1(C)[C@@H](O[C@H]2O[C@H](C(=O)O)[C@@H](O)[C@H](O)[C@H]2O[C@@H]2O[C@H](C(=O)O)[C@@H](O)[C@H](O)[C@H]2O)CC[C@]2(C)[C@H]3C(=O)C=C4[C@@H]5C[C@@](C)(C(=O)O)CC[C@]5(C)CC[C@@]4(C)[C@]3(C)CC[C@@H]12 [MONO, monoammonium glycyrrhizinate] 320
